- Measurement Target: monomeric alpha-synuclein, P37840
- Assay Info: SPR, captured mAb
- Condition Info: remark: other sources report otherwise
Property Measured: kon (M⁻¹ s⁻¹)

| Binder | Property Measured | Value Measured |
| --- | --- | --- |
| ACI-8033-18C11-Ab1 (antibody, V domains shown) VH: QVQLQQPGAELVKPGASVKMSCKAAGYTFSSYWITWVRQRPGQGLDWIGDIYPGGGVTNYNEKFKTKATLTVDTSSSTAYMQLSSLTSEDSAVYYCATAQTTFAYWGQGTLVTVSA VL: DVLMTQTPLSLPVSLGDQASISCRSSQNIVHNNGNTYLEWYLQKPGQSPKLLIYKVSNRFSGVPDRFSGSGSGTDFTLKISRVEAEDLGVYYCFQGSHVPRTFGGGTKLEIK | kon | 143000 |
| ACI-7067-1111B12-Ab2 (antibody, V domains shown) VH: QVQLLQPGTALVMPGASVKLSCKASGYTFTTYWMHWVKQRPGQGLEWIGNINPINGGSNYNEKFKSKASLTVDKSSSTAYMQLSSLTSEDSAVYYCVIAMDYWGQGTSVTVSS VL: DIQMTQSPSSLSASLGERVSLTCRASQDIGISLNWFQQEPDGTIKRLIYATSSLDSGVPKRFSGNRSGSDYSLTISSLESEDFADYYCLQFASSPLTFGAGTKLELK | kon | 172000 |
